Origin of values: PubChem BioAssay (NCI)

tested on: UACC-62 melanoma; assay: NCI-60 one-dose screen, 48 h (100 = growth as untreated, 0 = no growth, -100 = all killed); settings: 10 µM unless noted
Compounds without any hit were thinned out: in the full panel of roughly 83,000, 20% have a hit. Calls of active or inactive are those of the source. The calls were made as follows: active = growth percent below 10; inactive = the rest.
growth reference

Study these solved cases before continuing.
{"molecule": "CCCCNc1nc(NN2C(=O)c3cccc4cccc(c34)C2=O)nc(-n2cnc3ccccc32)n1", "study.target": "UACC-62 melanoma", "growth": "88.3% (inactive)"}
{"molecule": "CNCCCNc1nc2ccccc2c2c(=O)c3cc(OC)ccc3sc12", "study.target": "UACC-62 melanoma", "growth": "99.3% (inactive)"}
{"molecule": "CCCCOc1nc2c(C)cccc2cc1-c1cc(-c2ccc(Cl)cc2)nc(-c2ccc(Cl)cc2)c1", "study.target": "UACC-62 melanoma", "growth": "97.8% (inactive)"}
{"molecule": "Cc1cccc(OCC(O)CN2CCN(c3ccc(Cl)cc3)CC2)c1 (stereo not given)", "study.target": "UACC-62 melanoma", "growth": "94.2% (inactive)"}
{"molecule": "C#C[C@]1(O)CC[C@H]2[C@@H]3CC=C4c5sc(Nc6ccccc6)nc5CC[C@]4(C)[C@H]3CC[C@@]21C", "study.target": "UACC-62 melanoma", "growth": "19.6% (inactive)"}
{"molecule": "Cc1ccc(S(=O)(=O)N/N=C/C2(c3ccccc3)CC2)cc1", "study.target": "UACC-62 melanoma", "growth": "102% (inactive)"}
{"molecule": "O=c1[nH]c2c(ccc3cnccc32)c2c1CCC2", "study.target": "UACC-62 melanoma", "growth": "-81.3% (active)"}
{"molecule": "CCCCCCCNC(=O)CCCNc1ncnc2c1ncn2-c1cccc(C(C)O)c1 (stereo not given)", "study.target": "UACC-62 melanoma", "growth": "90.3% (inactive)"}

Returns the measured growth for the input molecule. Input: `NC(=O)C1(Nc2ccc(Br)cc2)CCCC1`
96.4% (inactive)

Returns the measured growth for the input molecule. Input: `Cc1ccc2c(-c3cc(-c4ccccc4)nc(N)c3C#N)cc(=O)oc2c1`
90.1% (inactive)

====

system: RXF 393 renal; assay: NCI-60 one-dose screen, 48 h; details: 10 µM unless noted
Compounds without any hit were thinned out: in the full panel of roughly 83,000, 20% have a hit. Calls of active or inactive are those of the source. Rule for the calls: active = growth percent below 10; inactive = the rest.
Mark one answer only. Choices: TRUE for active, FALSE for inactive

Below, 3 compounds whose answers are already recorded.
{"compound": "O=S(=O)(Nc1ccc(-c2nc(-c3cccc(OCCN4CCOCC4)c3)c(-c3ccnc(Br)c3)[nH]2)cc1)c1ccccc1", "study.target": "RXF 393 renal", "label.value": "TRUE"}
{"compound": "O=C(Nn1c(NCC(=O)N2c3ccccc3Sc3ccccc32)nnc1-c1ccc(O)cc1)c1ccccc1", "study.target": "RXF 393 renal", "label.value": "FALSE"}
{"compound": "COc1ccc(C(=O)C(C)C)c2ccccc12", "study.target": "RXF 393 renal", "label.value": "FALSE"}

Dear colleague, could you share the recorded outcome for `[O-][n+]1c2ccccc2[n+]([O-])c2c3ccccc3[nH]c21` when you have a moment?
FALSE

Dear colleague, could you share the recorded outcome for `O=C(N/N=C/[C@H](O)[C@H](O)[C@H](O)CO)c1ccc(NC(=O)c2cccnc2)cc1` when you have a moment?
FALSE
